Attribution: patent US20180326084A1

TARGET OF ASSAY: T1, human AXL (full length) (human, UniProt P30530 26-894)
T1 construct: also called TH1021-AXL; TH1021-hAXL
TEST PROTOCOL: flow cytometry, A431 cells pre-incubated with 10 µg/mL Gas6 (competitor)
PARAMETER MEASURED: maximal binding in presence of Gas6 (% of binding in absence of Gas6) (%)
Answer format: numeric, % implied, no suffix.

-- ask Input IgG1-AXL-726 (antibody, V domains shown) VH: QVQLQQWGAGLLKPSETLSLTCAIDGGSFSGYYWSWIRQPPGKGLEWIGEISHSGRTNYNPSLKSRVTISIDTSKNQFSLKLSSVAAADTAVYYCARFITMIRGAIITHFDYWGQGALVTVSS VL: DIQMTQSPSSLSASVGDRVTITCRASQGISSWLAWYQQKPEKAPKSLIYAASSLQSGVPSRFSGSGSGTDFTLTISSLQPEDFATYYCQQYHSYPYTFGQGTKLEIK , output reported maximal binding in presence of Gas6 (% of binding in absence of Gas6).
-- reply 97

-- ask Input IgG1-AXL-733 (antibody, V domains shown) VH: QVQLVESGGGVVQPGRSLRLSCAASGFSFSTYAMHWVRQAPGKGLEWVAVISYDGDNKYSADSVKGRFTISRDNSKNTLYLQMNSLRAEDTAVYYCARGRKLGIDAFDIWGQGTMVTVSS VL: AIQLTQSPSSLSASVGDRVTITCRASQGISSALAWYQQKPGKAPKLLIYDASSLESGVPSRFSGSGSGTDFTLTISGLQPEDFATYYCQQFNSYPFTFGPGTKVDIK , output reported maximal binding in presence of Gas6 (% of binding in absence of Gas6).
-- reply 93
